- Tested target: T1, PSMA Fab
- T1 construct: also called Anti-PSMA Fab; 006 PSMA Fab
- Test protocol: clonal phage ELISA on biotinylated PSMA Fab captured on neutravidin, anti-M13 HRP detection;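 note: crude clonal phage supernatants added to wells pretreated with PSMA antigen in blocking buffer or with blocking buffer only, then briefly incubated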
Items are presented alongside their recorded Phage binding ELISA signal, Anti-PSMA Fab.
Assay endpoint: Phage binding ELISA signal, Anti-PSMA Fab

{"Binder": "VPKWCTPTWMCIHM (Peptide-180 library clone, tested as clonal phage supernatant (peptide fused to the pIII filament of the bacteriophage)) [Phage-2356]", "Measured": 1.42}
{"Binder": "LMNWCTPAWMCTGF (Peptide-180 library clone, tested as clonal phage supernatant (peptide fused to the pIII filament of the bacteriophage)) [Phage-2344]", "Measured": 1.43}
{"Binder": "SENWCIPNWMCSGL (Peptide-180 library clone, tested as clonal phage supernatant (peptide fused to the pIII filament of the bacteriophage)) [Phage-2347]", "Measured": 1.43}
{"Binder": "WDRLCIPPWMCDVM (Peptide-180 library clone, tested as clonal phage supernatant (peptide fused to the pIII filament of the bacteriophage)) [Phage-2346]", "Measured": 1.43}
{"Binder": "IDHWCTPAWMCRGF (Peptide-180 library clone, tested as clonal phage supernatant (peptide fused to the pIII filament of the bacteriophage)) [Phage-2352]", "Measured": 1.43}
{"Binder": "LSNWCVPLWMCEMV (Peptide-180 library clone, tested as clonal phage supernatant (peptide fused to the pIII filament of the bacteriophage)) [Phage-2349]", "Measured": 1.43}
{"Binder": "AERWCIPSWMCELA (Peptide-180 library clone, tested as clonal phage supernatant (peptide fused to the pIII filament of the bacteriophage)) [Phage-2357]", "Measured": 1.42}
{"Binder": "SEEWCIPPWMCLGR (Peptide-180 library clone, tested as clonal phage supernatant (peptide fused to the pIII filament of the bacteriophage)) [Phage-2353]", "Measured": 1.43}
